QUANTITY: logP

Examples with answers:
[
  {
    "COMPOUND": "O=C(Cc1ccccc1)NCCNCC(O)COCCc1ccccc1 (stereo not drawn)",
    "logP": 1.24
  },
  {
    "COMPOUND": "CC(C)NCC(O)COCc1ccccc1 (stereo not drawn)",
    "logP": 1.62
  },
  {
    "COMPOUND": "CC(C)C(=O)NCCNCC(O)COCCCc1ccccc1 (stereo not drawn)",
    "logP": 1.25
  },
  {
    "COMPOUND": "O=C(Cc1ccccc1)NCCNCC(O)COCCOc1ccccc1 (stereo not drawn)",
    "logP": 0.75
  },
  {
    "COMPOUND": "O=C(Cc1ccccc1)NCCNCC(O)OCc1ccccc1 (stereo not drawn)",
    "logP": 1.05
  },
  {
    "COMPOUND": "CC(C)(C)NCC(O)COCCOc1ccccc1 (stereo not drawn)",
    "logP": 2.35
  },
  {
    "COMPOUND": "CC(C)NCC(O)COCCc1ccccc1 (stereo not drawn)",
    "logP": 1.76
  },
  {
    "COMPOUND": "CC(C)(C)NCC(O)COC1CCCc2ccccc21 (stereo not drawn)",
    "logP": 3.55
  }
]

a: CC(C)C(=O)NCCNCC(O)COCc1ccccc1 (stereo not drawn)
b: O=C(Cc1ccccc1)NCCNCC(O)COC1CCCc2ccccc21 (stereo not drawn)
Req: From the items above, decide which of a and b has the lower logP reading. To answer, give the label that identifies your chosen option.
Resp: a

###

QUANTITY: logP

[
  {
    "COMPOUND": "O=C(Cc1ccccc1)NCCNCC(O)COc1ccccc1 (configuration not stated)",
    "logP": 0.63
  },
  {
    "COMPOUND": "CC(C)C(=O)NCCNCC(O)COCCOc1ccccc1 (configuration not stated)",
    "logP": 0.48
  },
  {
    "COMPOUND": "CC(C)(C)NCC(O)COCC=Cc1ccccc1 (configuration not stated)",
    "logP": 2.29
  },
  {
    "COMPOUND": "O=C(Cc1ccccc1)NCCNCC(O)COCC=Cc1ccccc1 (configuration not stated)",
    "logP": 1.76
  }
]

A: CC(C)NCC(O)COCCCC(C)c1ccccc1 (configuration not stated)
B: CC(C)C(=O)NCCNCC(O)COCCc1ccccc1 (configuration not stated)
C: CC(C)(C)NCC(O)COc1ccccc1 (configuration not stated)
Req: Order each entry by recorded logP, climbing from the minimum. Your reply should list the labels following the order given in the request.
Resp: B, C, A

###

QUANTITY: logP

[
  {
    "COMPOUND": "CC(C)NCC(O)COCCOc1ccccc1 (stereo not drawn)",
    "QUANTITY": "logP",
    "VALUE_REPORTED": 1.63
  },
  {
    "COMPOUND": "CC(C)(C)NCC(O)COCc1ccccc1 (stereo not drawn)",
    "QUANTITY": "logP",
    "VALUE_REPORTED": 1.7
  },
  {
    "COMPOUND": "CC(C)C(=O)NCCNCC(O)COC1CCCc2ccccc21 (stereo not drawn)",
    "QUANTITY": "logP",
    "VALUE_REPORTED": 1.99
  }
]

Recorded values, source the OPERA property sets (Mansouri et al. 2018).
